molecular target: Adenosine A2 receptor (Rattus norvegicus, UniProt P29276+P30543); assay: Binding affinity against adenosine A2 receptor in rat brain using [3H]- CGS 21680 as radioligand; type: tissue-based
Give log10 Ki for every item shown.
Scale: log10; quantity: Ki; unit before log: µM

Lookup result for `Cn1c(=O)c2c(nc(CCc3cccc(N)c3)n2C)n(C)c1=O` ; measured log10 Ki: 1.26

Lookup result for `CCCn1c(=O)c2nc(/C=C/c3ccc(OC)c(OC)c3OC)[nH]c2n(CCC)c1=O` ; measured log10 Ki: -1.19

Lookup result for `Cn1c(=O)c2c(nc(/C=C/c3cccc(C(F)(F)F)c3)n2C)n(C)c1=O` ; measured log10 Ki: -0.87

Lookup result for `CCCn1c(=O)c2c(nc(/C=C/c3cc(F)cc(F)c3)n2C)n(CCC)c1=O` ; measured log10 Ki: -1.28

Lookup result for `COc1cc(/C=C/c2nc3c(c(=O)n(C)c(=O)n3C)n2CCc2ccccc2)cc(OC)c1OC` ; measured log10 Ki: -1.85

Lookup result for `COc1cccc2cc(-c3nc4c(=O)n(C)c(=O)n(C)c4[nH]3)oc12` ; measured log10 Ki: 0.59

Lookup result for `CCCn1c(=O)c2c(nc(/C=C/c3cccc(F)c3)n2C)n(CCC)c1=O` ; measured log10 Ki: -1.48

Lookup result for `CCCn1c(=O)c2c(nc(/C=C/c3cc(OC)cc(OC)c3)n2C)n(CCC)c1=O` ; measured log10 Ki: -1.62

Lookup result for `COc1cc(/C=C/c2nc3c(c(=O)n(C)c(=O)n3C)n2C)cc(OC)c1OC/C=C/CNC(C)=O` ; measured log10 Ki: -0.67

Lookup result for `COc1cccc(/C=C/c2nc3c(c(=O)n(C)c(=O)n3C)n2C)c1` ; measured log10 Ki: -1.07

Lookup result for `COc1cc(/C=C/c2nc3c(c(=O)n(C)c(=O)n3C)n2C)cc(OC)c1OCc1ccccc1` ; measured log10 Ki: -0.86

Lookup result for `CCCn1c(=O)c2nc(/C=C/c3cccc(Cl)c3)[nH]c2n(CCC)c1=O` ; measured log10 Ki: -0.67

Lookup result for `CN(C)c1ccc(/C=C/c2nc3c(c(=O)n(C)c(=O)n3C)n2C)cc1` ; measured log10 Ki: 0.97

Lookup result for `CCCn1c(=O)c2nc(/C=C/c3cc(OC)cc(OC)c3)[nH]c2n(CCC)c1=O` ; measured log10 Ki: -0.68

Lookup result for `Cn1c(=O)c2c(nc(/C=C/c3cccc([N+](=O)[O-])c3)n2C)n(C)c1=O` ; measured log10 Ki: -0.71

Lookup result for `Cn1c(=O)c2c(nc(/C=C/c3cccc(F)c3)n2C)n(C)c1=O` ; measured log10 Ki: -1.08

Lookup result for `Cn1c(=O)c2nc(/C=C/c3cccc(N)c3)[nH]c2n(C)c1=O` ; measured log10 Ki: -0.69

Lookup result for `CCCn1c(=O)c2c(nc(/C=C/c3cccc(N)c3)n2C)n(CCC)c1=O` ; measured log10 Ki: -1.72

Lookup result for `CCCn1c(=O)c2c(nc(/C=C/c3ccc(OC)c(OC)c3OC)n2C)n(CCC)c1=O` ; measured log10 Ki: -1.16

Lookup result for `COc1ccc(/C=C/c2nc3c(c(=O)n(C)c(=O)n3C)n2C)cc1OC` ; measured log10 Ki: -0.71

Lookup result for `COc1ccccc1/C=C/c1nc2c(=O)n(C)c(=O)n(C)c2[nH]1` ; measured log10 Ki: -0.19

Lookup result for `COc1cc(/C=C/c2nc3c(c(=O)n(C)c(=O)n3C)n2C)cc(OC)c1OC(C)=O` ; measured log10 Ki: -1.17

Lookup result for `COc1ccc(/C=C/c2nc3c(c(=O)n(C)c(=O)n3C)n2C)c(OC)c1OC` ; measured log10 Ki: -0.69

Lookup result for `COc1cc(/C=C/c2nc3c(c(=O)n(C)c(=O)n3C)n2C)cc(OC)c1O` ; measured log10 Ki: -0.35

Lookup result for `Cn1c(=O)c2nc(/C=C/c3cccc([N+](=O)[O-])c3)[nH]c2n(C)c1=O` ; measured log10 Ki: -0.36

Lookup result for `COc1ccc(/C=C/c2nc3c(=O)n(C)c(=O)n(C)c3[nH]2)c(OC)c1OC` ; measured log10 Ki: 0.21

Lookup result for `COc1ccccc1/C=C/c1nc2c(c(=O)n(C)c(=O)n2C)n1C` ; measured log10 Ki: -0.57

Lookup result for `CCn1c(=O)c2nc(/C=C/c3cc(OC)c(OC)c(OC)c3)[nH]c2n(CC)c1=O` ; measured log10 Ki: -0.57

Lookup result for `CCCn1c(=O)c2nc(/C=C/c3ccccc3)[nH]c2n(CCC)c1=O` ; measured log10 Ki: -1.36

Lookup result for `Cn1c(=O)c2nc(/C=C/c3ccccc3)[nH]c2n(C)c1=O` ; measured log10 Ki: -0.54

Lookup result for `Cn1c(=O)c2nc(/C(F)=C/c3ccccc3)[nH]c2n(C)c1=O` ; measured log10 Ki: 0.32

Lookup result for `CCCn1c(=O)c2nc(/C=C/c3cc(OC)c(OC)cc3OC)[nH]c2n(CCC)c1=O` ; measured log10 Ki: -0.49

Lookup result for `COc1cc(/C=C/c2nc3c(=O)n(C)c(=O)n(C)c3[nH]2)cc(OC)c1` ; measured log10 Ki: -0.92

Lookup result for `COc1ccc(/C=C/c2nc3c(=O)n(C)c(=O)n(C)c3[nH]2)cc1` ; measured log10 Ki: -0.33

Lookup result for `Cn1c(=O)c2c(nc(/C=C/c3cccc(N(C(=O)OC(C)(C)C)C(=O)OC(C)(C)C)c3)n2C)n(C)c1=O` ; measured log10 Ki: -0.13

Lookup result for `Cn1c(=O)c2c(nc(/C=C/c3cccc(NC(=O)OC(C)(C)C)c3)n2C)n(C)c1=O` ; measured log10 Ki: -0.11

Lookup result for `COc1ccc(/C=C/c2nc3c(c(=O)n(C)c(=O)n3C)n2C)cc1` ; measured log10 Ki: -0.49

Lookup result for `Cn1c(=O)c2c(nc(/C=C/c3cccc(NC(=O)CCC(=O)O)c3)n2C)n(C)c1=O` ; measured log10 Ki: -0.84

Lookup result for `COc1cccc(/C=C/c2nc3c(c(=O)n(C)c(=O)n3C)n2C)c1OC` ; measured log10 Ki: -0.15

Lookup result for `CC(=O)Nc1cccc(/C=C/c2nc3c(c(=O)n(C)c(=O)n3C)n2C)c1` ; measured log10 Ki: -1.41

----------
Give Ki for every item shown.
target: Adenosine A2 receptor (Rattus norvegicus, UniProt P29276+P30543); test: Binding affinity against adenosine A2 receptor in rat brain using [3H]- CGS 21680 as radioligand; format: tissue-based
For clarity, give the value followed by its unit.

Lookup result for `COc1cc(/C=C/c2nc3c(c(=O)n(C)c(=O)n3C)n2C)cc(OC)c1OC/C=C/CN` ; measured Ki: 228 nM

Lookup result for `CCCn1c(=O)c2c(nc(/C=C/c3cc(OC)c(OC)cc3OC)n2C)n(CCC)c1=O` ; measured Ki: 327 nM

Lookup result for `C#CCn1c(/C=C/c2cc(OC)c(OC)c(OC)c2)nc2c1c(=O)n(C)c(=O)n2C` ; measured Ki: 525 nM

Lookup result for `CCCn1c(=O)c2nc(/C=C/c3cccc(F)c3)[nH]c2n(CCC)c1=O` ; measured Ki: 153 nM

Lookup result for `COc1ccc(/C=C/c2nc3c(=O)n(C)c(=O)n(C)c3[nH]2)cc1OC` ; measured Ki: 1100 nM

Lookup result for `Cn1c(=O)c2nc(/C=C/c3cccc(C(F)(F)F)c3)[nH]c2n(C)c1=O` ; measured Ki: 343 nM

Lookup result for `COc1cc(/C=C/c2nc3c(c(=O)n(C)c(=O)n3C)n2C)cc(OC)c1OCCCCNC(=O)OC(C)(C)C` ; measured Ki: 265 nM

Lookup result for `Cn1c(=O)c2nc(/C=C/c3cccc(F)c3)[nH]c2n(C)c1=O` ; measured Ki: 516 nM

Lookup result for `COc1cc(/C=C/c2nc3c(c(=O)n(C)c(=O)n3C)n2C)cc(OC)c1OCCCCN` ; measured Ki: 173 nM

Lookup result for `Cn1c(=O)c2c(nc(/C=C/c3cc(F)cc(F)c3)n2C)n(C)c1=O` ; measured Ki: 65 nM

----------
target: Adenosine A2 receptor (Rattus norvegicus, UniProt P29276+P30543); experiment: Binding affinity against adenosine A2 receptor in rat brain using [3H]- CGS 21680 as radioligand; type: tissue-based
result type: log10 of Ki (log10 of the value in nM)
Scale: log10; quantity: Ki; unit before log: nM

Value sought: log10 of Ki, system Adenosine A2 receptor (Rattus norvegicus, UniProt P29276+P30543), item `CCCn1c(=O)c2c(nc(/C=C/c3cccc([N+](=O)[O-])c3)n2C)n(CCC)c1=O` . Result: 1.75

Value sought: log10 of Ki, system Adenosine A2 receptor (Rattus norvegicus, UniProt P29276+P30543), item `COc1cc(/C=C/c2nc3c(c(=O)n(C)c(=O)n3C)n2C)cc(OC)c1OC/C=C/CNC(=O)OC(C)(C)C` . Result: 2.55

Value sought: log10 of Ki, system Adenosine A2 receptor (Rattus norvegicus, UniProt P29276+P30543), item `COc1cccc(/C=C/c2nc3c(=O)n(C)c(=O)n(C)c3[nH]2)c1` . Result: 2.58

Value sought: log10 of Ki, system Adenosine A2 receptor (Rattus norvegicus, UniProt P29276+P30543), item `CCn1c(/C=C/c2cc(OC)c(OC)c(OC)c2)nc2c1c(=O)n(C)c(=O)n2C` . Result: 2.95

Value sought: log10 of Ki, system Adenosine A2 receptor (Rattus norvegicus, UniProt P29276+P30543), item `COc1cc(/C=C/c2nc3c(c(=O)n(C)c(=O)n3C)n2C)cc(OC)c1` . Result: 1.88

Value sought: log10 of Ki, system Adenosine A2 receptor (Rattus norvegicus, UniProt P29276+P30543), item `CCCn1c(=O)c2nc(/C=C/c3cc(F)cc(F)c3)[nH]c2n(CCC)c1=O` . Result: 2.54

Value sought: log10 of Ki, system Adenosine A2 receptor (Rattus norvegicus, UniProt P29276+P30543), item `Cn1c(=O)c2nc(/C=C/c3cccc(O)c3)[nH]c2n(C)c1=O` . Result: 2.48

Value sought: log10 of Ki, system Adenosine A2 receptor (Rattus norvegicus, UniProt P29276+P30543), item `CN(C)c1ccc(/C=C/c2nc3c(=O)n(C)c(=O)n(C)c3[nH]2)cc1` . Result: 4.11

Value sought: log10 of Ki, system Adenosine A2 receptor (Rattus norvegicus, UniProt P29276+P30543), item `Cn1c(=O)c2nc(/C=C/c3cc(F)cc(F)c3)[nH]c2n(C)c1=O` . Result: 2.56

Value sought: log10 of Ki, system Adenosine A2 receptor (Rattus norvegicus, UniProt P29276+P30543), item `COc1cccc2cc(-c3nc4c(c(=O)n(C)c(=O)n4C)n3C)oc12` . Result: 3.68

Value sought: log10 of Ki, system Adenosine A2 receptor (Rattus norvegicus, UniProt P29276+P30543), item `Cn1c(=O)c2c(nc(/C=C/c3cccc(N)c3)n2C)n(C)c1=O` . Result: 1.76

Value sought: log10 of Ki, system Adenosine A2 receptor (Rattus norvegicus, UniProt P29276+P30543), item `COc1cccc(/C=C/c2nc3c(=O)n(C)c(=O)n(C)c3[nH]2)c1OC` . Result: 2.78
